Molecular target: 5-hydroxytryptamine receptor 2C (Homo sapiens, UniProt P28335)
Sequence (P28335 whole entry): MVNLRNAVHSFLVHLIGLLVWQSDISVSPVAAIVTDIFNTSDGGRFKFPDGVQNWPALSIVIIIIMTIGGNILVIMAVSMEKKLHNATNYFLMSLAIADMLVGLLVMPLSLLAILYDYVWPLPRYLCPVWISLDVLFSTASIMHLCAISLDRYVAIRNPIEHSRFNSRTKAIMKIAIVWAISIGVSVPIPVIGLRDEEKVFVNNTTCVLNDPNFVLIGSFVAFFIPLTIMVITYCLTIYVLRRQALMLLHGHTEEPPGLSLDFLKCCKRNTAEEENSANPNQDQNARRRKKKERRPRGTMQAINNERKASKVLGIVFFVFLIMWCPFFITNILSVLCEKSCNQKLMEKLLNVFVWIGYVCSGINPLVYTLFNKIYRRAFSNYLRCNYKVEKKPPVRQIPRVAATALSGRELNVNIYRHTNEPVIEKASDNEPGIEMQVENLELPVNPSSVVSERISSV
measured-parameter: pKi
Reminder that pKi is minus the log10 of a molar concentration.

compound: C[C@H]1c2cc(Cl)c(Cl)cc2[C@H]2CNC[C@H]21
measured-parameter: pKi
result-number: 6.81
//
compound: Cc1cc2c(cc1Cl)C(C)[C@@H]1CNC[C@H]21 (mixture of isomers)
measured-parameter: pKi
result-number: 6.97
//
compound: C[C@H]1c2cc(Cl)c(O)cc2[C@H]2CNC[C@H]21
measured-parameter: pKi
result-number: 7.57
//
compound: COc1cc2c(cc1Cl)C(C)[C@@H]1CNC[C@H]21 (mixture of isomers)
measured-parameter: pKi
result-number: 6.28

Task: Provide pKi value for the following compound: Cc1ccc2c(c1)C(C)[C@@H]1CNC[C@H]21 (mixture of isomers)
Result: 5.77

---

target: 5-hydroxytryptamine receptor 2C (Homo sapiens)
pKi: −log10 of the molar value.
Each entry gets F if its pKi stays under 8, and T if its pKi is 8 or above.

Below are worked cases with known answers.
compound: C[C@H]1c2c(ccc(Cl)c2Cl)[C@H]2CNC[C@H]21
assigned-label: T
--
compound: Cc1cccc2c1C(C)[C@@H]1CNC[C@H]21 (mixture of isomers)
assigned-label: F
--
compound: Cc1cc2c(cc1Cl)[C@H]1CNC[C@H]1C2C (mixture of isomers)
assigned-label: F
--
compound: CC1c2cc(F)ccc2[C@H]2CNC[C@@H]12 (mixture of isomers)
assigned-label: F
--
compound: Cc1cc2c(cc1Br)[C@H]1CNC[C@H]1C2C (mixture of isomers)
assigned-label: F

Task: Is the recorded value of pKi equal to or greater than 8 for this compound? "C[C@H]1c2cc(Cl)ccc2[C@H]2CNC[C@H]21"
Result: F

---

test: Half life in rat at 1.2 mg/kg, iv; assay type: ADME, organism-based; parameters: dose 1.2 mg/kg, route intravenous; settings: in vivo
measured-parameter: half-life (h)
All answers are understood in h, so give the number only.

Task: Provide half-life value for the following compound: "COc1cc2c(cc1Cl)[C@H](C)[C@@H]1CNC[C@H]21"
Result: 1.8

---

// reported Ki per item
biological target: 5-hydroxytryptamine receptor 2C (Homo sapiens)
All answers are understood in nM, so give the number only.

Known results for compounds:
compound: CC1c2ccc(F)cc2[C@H]2CNC[C@@H]12 (mixture of isomers)
Ki (nM): 3010

compound: C[C@@H]1c2cc(Cl)c(Cl)cc2[C@H]2CNC[C@@H]12
Ki (nM): 1140

compound: Cc1cc2c(cc1Br)C(C)[C@@H]1CNC[C@H]21 (mixture of isomers)
Ki (nM): 463

Task: Provide Ki value for the following compound: Cc1cccc2c1[C@H]1CNC[C@H]1C2C (mixture of isomers)
Result: 1850

Task: Provide Ki value for the following compound: "COc1cc2c(cc1Br)[C@H](C)[C@@H]1CNC[C@H]21"
Result: 27

Task: Provide Ki value for the following compound: "CCOc1cc2c(cc1Cl)[C@H](C)[C@@H]1CNC[C@H]21"
Result: 231
